Assayed System: Estrogen receptor (Homo sapiens) (UniProt P03372)
Sequence (P03372 whole entry, looked up): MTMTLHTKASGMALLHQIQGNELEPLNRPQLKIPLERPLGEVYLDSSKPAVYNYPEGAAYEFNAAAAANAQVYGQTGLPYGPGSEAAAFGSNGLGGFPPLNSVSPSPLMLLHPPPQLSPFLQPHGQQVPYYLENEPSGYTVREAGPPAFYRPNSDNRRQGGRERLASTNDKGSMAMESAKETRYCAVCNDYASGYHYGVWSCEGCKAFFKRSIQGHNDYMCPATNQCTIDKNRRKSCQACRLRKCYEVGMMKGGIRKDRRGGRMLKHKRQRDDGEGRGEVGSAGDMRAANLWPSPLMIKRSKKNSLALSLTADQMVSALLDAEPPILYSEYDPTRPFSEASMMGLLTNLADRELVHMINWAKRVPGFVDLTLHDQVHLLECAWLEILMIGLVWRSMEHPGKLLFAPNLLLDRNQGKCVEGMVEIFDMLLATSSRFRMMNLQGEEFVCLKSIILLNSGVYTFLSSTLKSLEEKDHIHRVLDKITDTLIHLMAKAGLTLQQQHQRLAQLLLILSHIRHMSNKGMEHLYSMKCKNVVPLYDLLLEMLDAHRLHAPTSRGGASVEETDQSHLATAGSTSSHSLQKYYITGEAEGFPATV
Protocol Notes: OT_ERa_GFPERaERE_0480: Odyssey Thera (OT) 8-hour HeLa Transcription Induction Assay for Estrogen Receptor (AID 2283381)
The source made the active and inactive calls. Rule for the calls: active = hit-call score of the fitted dose curve at least 0.9, where 1 is the maximum; inactive = score below 0.9.
Outcome field: choose from 1.0 (active), 0.0 (inactive)

Please state the recorded outcome for this compound: CCN(CC)c1ccccc1
0.0

For O=S(=O)(c1ccc(O)cc1)c1ccc(O)cc1 , which call appears in the assay record?
1.0

Tell me the recorded outcome of this test for O=P1(N(CCCl)CCCl)NCCCO1 (centres undefined) .
0.0

Lab log entry: Nc1ccc(Cl)cc1 — outcome as called in the assay?
0.0

Record request — test call for Cc1ccc(N)cc1N
0.0

Could you please tell me the result logged for CCCCN(CCCC)SN(C)C(=O)Oc1cccc2c1OC(C)(C)C2 in this assay?
0.0

# outcome recorded in this test, key = CC(Cc1ccc(OCC(=O)O)cc1)NCC(O)c1csc(C(F)(F)F)n1 (centres undefined)
0.0

Could you check what this test reported for O=NN1CCCC1 ?
0.0

Which outcome was assigned to CCCCC(CC)COP(=O)(Oc1ccccc1)Oc1ccccc1 (centres undefined) in this test?
0.0

Could you kindly confirm the outcome this assay logged for O=P(Oc1ccccc1)(Oc1ccccc1)Oc1ccccc1 ?
1.0

Each compound tested received a call. Report the one for Cc1cccc(N)c1 .
0.0

In this assay, the call recorded for O=S1(=O)OCC2C(CO1)C1(Cl)C(Cl)=C(Cl)C2(Cl)C1(Cl)Cl (centres undefined) was what?
0.0

Each compound tested received a call. Report the one for COCCOCCO .
0.0

Identify the outcome logged in this assay for the compound shown: Cc1ccc(O)cc1C
0.0

All values here come from PubChem BioAssay (EPA / NIEHS).
